- Tested on: HeLa
- ASSAY SUMMARY: Cell cycle arrest in human HeLa cells assessed as accumulation at G2/M phase phase at 25 uM after 24 hrs using […] by flow cytometry analysis relative to control
- Assay type: functional
QUANTITY: Activity (%)
Return type: number; implicit unit %.

COMPOUND STRUCTURE: CCN1CCN(c2nc(-c3cccs3)cc3ccccc23)CC1
OBSERVED MEASUREMENT: 19.68
//
COMPOUND STRUCTURE: Cc1ccc2c(N3CCNCC3)nc(-c3cccs3)cc2c1
OBSERVED MEASUREMENT: 0.22
//
COMPOUND STRUCTURE: CCN1CCN(c2nc(-c3cccs3)cc3cc(C)ccc23)CC1
OBSERVED MEASUREMENT: 13.75
//
COMPOUND STRUCTURE: CCN1CCN(c2nc(-c3cccs3)cc3ccccc23)CC1.Cl
OBSERVED MEASUREMENT: 15.75
//
COMPOUND STRUCTURE: Cl.Nc1nc(-c2cccs2)cc2ccccc12
OBSERVED MEASUREMENT: 11.42
//
COMPOUND STRUCTURE: Nc1nc(-c2cccs2)cc2ccccc12
OBSERVED MEASUREMENT: 47.68
//
COMPOUND STRUCTURE: Cc1ccc2cc(-c3cccs3)nc(N3CCNCC3)c2c1
OBSERVED MEASUREMENT: 18.81
//
COMPOUND STRUCTURE: Cl.c1csc(-c2cc3ccccc3c(N3CCNCC3)n2)c1
OBSERVED MEASUREMENT: 1.23

*Q* State Activity (HeLa) of "Cc1ccc2c(N3CCNCC3)nc(-c3cccs3)cc2c1.Cl" .
*A* 0.27

*Q* State Activity (HeLa) of "c1csc(-c2cc3ccccc3c(N3CCNCC3)n2)c1" .
*A* 14.88
